- Test system: SF-268 CNS
- assay_procedure: NCI-60 one-dose screen, 48 h
- condition_details: 10 µM unless noted
About 83,000 compounds went through this panel and 20% of them were active in at least one assay; those are over-represented in the sample as a whole. Activity calls are given as the source filed them. Rule for the calls: active = growth percent below 10; inactive = the rest.
Please state which outcome applies, choosing from active, inactive

Here's what some known entries look like.
Cc1cc2nc3c4cc(O)ccc4n(CCN(C)C)c3nc2cc1C    active
Cc1ccc(-c2nc([P+](c3ccccc3)(c3ccccc3)c3ccccc3)c(N3CCOCC3)o2)cc1    inactive
Cn1cc(-c2csc(-c3cn(CCN)c4ccc(F)cc34)n2)c2cccnc21    inactive
CCCCC[C@H]1CC=C2C(=O)C=C[C@@H]2CC=CCCCC(=O)O[C@@H](CCCCC)CC=C2C(=O)C=C[C@@H]2CC=CCCCC(=O)O[C@@H](CCCCC)CC=C2C(=O)C=C[C@@H]2CC=CCCCC(=O)O1    inactive
Cc1nn(-c2ccc(Br)cc2)c2nc3[nH]c(=O)[nH]c(=O)c3nc12    inactive
COc1cccc(-c2nn(-c3ccccc3)cc2-c2ccnc(NCCCNS(=O)(=O)c3cccc(F)c3)c2)c1    inactive
OCC1OC(n2cnc3c(Cl)ncnc32)CC1O (stereo not given)    inactive
Cc1ccc(-c2nn(Cc3cn(-c4cc(C)nc5ccccc45)nn3)c3ncnc(N)c23)cc1    inactive
COc1ccc(-c2cc(=O)oc3ccc(Cl)cc23)cc1F    inactive

Note: attention shifts to another entry.
I'd appreciate the recorded outcome for CC(=O)c1c(C)[nH]c(-c2nc3ccc(N4CCN(C)CC4)cc3[nH]2)c1-c1ccc(OCC2CCOCC2)cc1 from this test.
inactive

Entry source: PubChem BioAssay (NCI)
